# system.under.test: anti-CD28 scFv (VH - linker 1 - VL) (biotinylated (site not stated))
# Sequence (scFv, as listed by the source): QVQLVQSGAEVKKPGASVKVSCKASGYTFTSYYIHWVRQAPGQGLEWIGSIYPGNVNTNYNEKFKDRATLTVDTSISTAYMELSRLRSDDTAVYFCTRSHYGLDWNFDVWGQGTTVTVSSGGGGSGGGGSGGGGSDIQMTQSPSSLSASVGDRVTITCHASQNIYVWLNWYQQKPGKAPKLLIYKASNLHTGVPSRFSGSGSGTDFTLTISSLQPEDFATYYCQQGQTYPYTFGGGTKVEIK
# assay.explanation: phage ELISA; biotinylated anti-CD28 scFv on neutravidin plate, clonal phage supernatant, anti-M13 HRP detection;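 further: before phage addition, wells were pre-incubated with blocking buffer plus soluble CD28 protein, or blocking buffer only, with no wash in between, signal reflects phage remaining bound after washing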
Threshold 0.5. CD28 scFv signal below it: condition met. CD28 scFv signal at it or above: condition not met.

Could you please tell me whether CD28 scFv signal recorded for MDWCPRDMWAECFF [Phage-190] is less than 0.5?
condition not met

More entries:
I wonder whether MDWCPRDMWYECFN [Phage-191] has CD28 scFv signal below 0.5. Can you tell?
condition not met

Next: MHWCPINLWNECFS [Phage-184]
condition met

Data origin, for the record: patent US20260242478A1
